test: Decomposition temperature Td by means of TGA; format: physicochemical
Listing of entries alongside the reported decomposition temperature Td.
result-type: decomposition temperature Td (°C)

compound	result-type	quantitative-readout
COc1ccc(N(c2ccc(OC)cc2)c2ccc(-c3ccc(N(c4ccc(OC)cc4)c4ccc5c(c4)c4cc(N(c6ccc(OC)cc6)c6ccc(-c7ccc(N(c8ccc(OC)cc8)c8ccc(OC)cc8)cc7)cc6)ccc4n5-c4ccccc4)cc3)cc2)cc1	decomposition temperature Td	450
COc1ccc(N(c2ccc(OC)cc2)c2ccc(-c3ccc(N(c4ccccc4)c4ccc(-c5ccc(N(c6ccccc6)c6ccc(-c7ccc(N(c8ccc(OC)cc8)c8ccc(OC)cc8)cc7)cc6)cc5)cc4)cc3)cc2)cc1	decomposition temperature Td	460
COc1ccc(N(c2ccc(OC)cc2)c2ccc(-c3ccc(N(c4ccc(-c5ccc(N(c6ccc(-c7ccc(N(c8ccc(OC)cc8)c8ccc(OC)cc8)cc7)cc6)c6cc(F)c(OC)c(F)c6)cc5)cc4)c4cc(F)c(OC)c(F)c4)cc3)cc2)cc1	decomposition temperature Td	430
COc1ccc(N(c2ccc(N(c3ccccc3)c3ccc(N(c4ccccc4)c4ccc(N(c5ccc(OC)cc5)c5ccc6c(c5)C(C)(C)c5ccccc5-6)cc4)cc3)cc2)c2ccc3c(c2)C(C)(C)c2ccccc2-3)cc1	decomposition temperature Td	460
CCOc1ccc(N(c2ccc(C3=CCC(N(c4ccc(OC)cc4)c4ccc(-c5ccc(N(c6ccc(OC)cc6)c6ccc(-c7ccc(N(c8ccc(OCC)cc8)c8cccc9ccccc89)cc7)cc6)cc5)cc4)C=C3)cc2)c2cccc3ccccc23)cc1 (stereo not drawn)	decomposition temperature Td	450
COc1ccc(N(c2ccc(OC)cc2)c2ccc(-c3ccc(N(c4ccc(-c5ccc(N(c6ccc(-c7ccc(N(c8ccc(OC)cc8)c8ccc(OC)cc8)cc7)cc6)c6ccc7c(c6)C(C)(C)c6ccccc6-7)cc5)cc4)c4ccc5c(c4)C(C)(C)c4ccccc4-5)cc3)cc2)cc1	decomposition temperature Td	460
COc1ccc(C(c2ccc(OC)cc2)c2ccc(N(c3ccc(OC)cc3)c3ccc(-c4ccc(N(c5ccc(OC)cc5)c5ccc(N(c6ccc(OC)cc6)c6ccc(OC)cc6)cc5)cc4)cc3)cc2)cc1	decomposition temperature Td	430
COc1ccc(N(c2ccc(OC)cc2)c2ccc(-c3ccc(N(c4ccc(OC)cc4)c4ccc(-c5ccc(N(c6ccc(OC)cc6)c6ccc(-c7ccc(N(c8ccc(OC)cc8)c8ccc(OC)cc8)cc7)cc6)cc5)cc4)cc3)cc2)cc1	decomposition temperature Td	450
CCCCCCC1(CCCCCC)c2cc(N(c3ccc(OC)cc3)c3ccc(-c4ccc(N(c5ccc(OC)cc5)c5ccc(OC)cc5)cc4)cc3)ccc2-c2ccc(N(c3ccc(OC)cc3)c3ccc(-c4ccc(N(c5ccc(OC)cc5)c5ccc(OC)cc5)cc4)cc3)cc21	decomposition temperature Td	420
